Tested on: Gram-positive bacteria (55 strains)
protocol_summary: MIC by standard broth dilution against clinical DFI isolates, Gram-positive bacteria
Type: cell-based
measurement_parameters: Gram-positive bacteria (55 strains), clinical DFI isolates; read-out: MIC50
measure_name: MIC50 (µg/mL)
Just the number please, in µg/mL, no unit attached.

Return reported MIC50; argument: CCC[C@@H]1C[C@@H](C(=O)N[C@@H]([C@H]2O[C@H](SC)[C@H](O)[C@@H](O)[C@H]2O)[C@H](C)Cl)N(C)C1
0.25

----------
Tested on: Gram-positive bacteria (55 strains)
protocol_summary: MBBC for in vitro biofilms of clinical DFI isolates, Gram-positive bacteria
Format: cell-based
measurement_parameters: biofilms, Gram-positive bacteria (55 strains); read-out: MBBC90
measure_name: MBC (µg/mL)
Give the number; µg/mL is assumed, so skip it.

Returns the measured MBC for the input compound. Input: CO[C@H]1/C=C/O[C@@]2(C)Oc3c(C)c(O)c4c(O)c(c(/C=N/N5CCC(N(C)C6([C@@H]7CCN(c8c(F)cn9c(=O)c(C(=O)O)cc(C%10CC%10)c9c8C)C7)CC6)CC5)c(O)c4c3C2=O)NC(=O)/C(C)=C\C=C\[C@H](C)[C@H](O)[C@@H](C)[C@@H](O)[C@@H](C)[C@H](OC(C)=O)[C@@H]1C
16

----------
System: Staphylococcus aureus (18 strains)
protocol_summary: MIC against clinical DFI isolates, Staphylococcus aureus
Type: cell-based
measurement_parameters: Staphylococcus aureus (18 strains); read-out: MIC90
Description: Preparation of test strains: In this example, foot specimens were collected from 49 patients with type II diabetes. Isolates were obtained from the specimens described above through homogenization, plating, and culture at 37° C., and after the removal of fungi and strains with poor growth or strains that could not be isolated and purified, a total of 69 clinical strains were obtained. Among these, 55 strains were Gram-positive bacteria and 14 strains were Gram-negative bacteria. […]
measure_name: MIC90 (µg/mL)
Quick reminder: number only, in µg/mL, skip the unit.

Value lookup for MIC90; key = CC(=O)NC[C@H]1CN(c2ccc(N3CCOCC3)c(F)c2)C(=O)O1
4

----------
# MIC50 listing for each entry below
Test system: Gram-positive bacteria (55 strains)
protocol_summary: MIC by standard broth dilution against clinical DFI isolates, Gram-positive bacteria
Format: cell-based
measurement_parameters: Gram-positive bacteria (55 strains), clinical DFI isolates; read-out: MIC50

Before answering, review these 2 worked examples.
CO[C@H]1/C=C/O[C@@]2(C)Oc3c(C)c(O)c4c(O)c(c(/C=N/N5CCN(C)CC5)c(O)c4c3C2=O)NC(=O)/C(C)=C\C=C\[C@H](C)[C@H](O)[C@@H](C)[C@@H](O)[C@@H](C)[C@H](OC(C)=O)[C@@H]1C	≤ 0.015 µg/mL
CO[C@H]1/C=C/O[C@@]2(C)Oc3c(C)c(O)c4c(O)c(c(/C=N/N5CCC(N(C)C6([C@@H]7CCN(c8c(F)cn9c(=O)c(C(=O)O)cc(C%10CC%10)c9c8C)C7)CC6)CC5)c(O)c4c3C2=O)NC(=O)/C(C)=C\C=C\[C@H](C)[C@H](O)[C@@H](C)[C@@H](O)[C@@H](C)[C@H](OC(C)=O)[C@@H]1C	≤ 0.015 µg/mL

// returns reported MIC50 for input CN[C@H](CC(C)C)C(=O)N[C@H]1C(=O)N[C@@H](CC(N)=O)C(=O)N[C@H]2C(=O)N[C@H]3C(=O)N[C@H](C(=O)N[C@H](C(=O)O)c4cc(O)cc(O)c4-c4cc3ccc4O)[C@H](O)c3ccc(c(Cl)c3)Oc3cc2cc(c3O[C@@H]2O[C@H](CO)[C@@H](O)[C@H](O)[C@H]2O[C@H]2C[C@](C)(N)[C@H](O)[C@H](C)O2)Oc2ccc(cc2Cl)[C@H]1O
2 µg/mL

----------
# key: entry, value: MIC50
Test system: Staphylococcus aureus (18 strains)
protocol_summary: MIC against clinical DFI isolates, Staphylococcus aureus
Assay type: cell-based
measurement_parameters: Staphylococcus aureus (18 strains); read-out: MIC50
Enter your answer as a number in µg/mL; do not include the unit.

Look over these answered cases.
C/C(=C\C(=O)OCCCCCCCCC(=O)O)C[C@@H]1OC[C@H](C[C@@H]2O[C@H]2[C@@H](C)[C@H](C)O)[C@@H](O)[C@H]1O	0.25
Cc1onc(-c2ccccc2)c1C(=O)N[C@@H]1C(=O)N2[C@@H]1SC(C)(C)[C@@H]2C(=O)O	0.5

Kindly consider the entry below.
Can you look up the measured MIC50 of CC(=O)NC[C@H]1CN(c2ccc(N3CCOCC3)c(F)c2)C(=O)O1 for me?
2

----------
Listed here: items and their measured MIC90.
Tested on: Staphylococcus aureus (18 strains)
protocol_summary: MIC against clinical DFI isolates, Staphylococcus aureus
Format: cell-based
measurement_parameters: Staphylococcus aureus (18 strains); read-out: MIC90
Experimental: Preparation of test strains: In this example, foot specimens were collected from 49 patients with type II diabetes. Isolates were obtained from the specimens described above through homogenization, plating, and culture at 37° C., and after the removal of fungi and strains with poor growth or strains that could not be isolated and purified, a total of 69 clinical strains were obtained. Among these, 55 strains were Gram-positive bacteria and 14 strains were Gram-negative bacteria. […]

Please review the following examples before continuing.
CCC[C@@H]1C[C@@H](C(=O)N[C@@H]([C@H]2O[C@H](SC)[C@H](O)[C@@H](O)[C@H]2O)[C@H](C)Cl)N(C)C1	0.25 µg/mL
CO[C@H]1/C=C/O[C@@]2(C)Oc3c(C)c(O)c4c(O)c(c(/C=N/N5CCN(C)CC5)c(O)c4c3C2=O)NC(=O)/C(C)=C\C=C\[C@H](C)[C@H](O)[C@@H](C)[C@@H](O)[C@@H](C)[C@H](OC(C)=O)[C@@H]1C	≤ 0.015 µg/mL
Cc1onc(-c2ccccc2)c1C(=O)N[C@@H]1C(=O)N2[C@@H]1SC(C)(C)[C@@H]2C(=O)O	64 µg/mL

The record that follows has no MIC90 shown yet.
For Staphylococcus aureus (18 strains), provide MIC90 of C/C(=C\C(=O)OCCCCCCCCC(=O)O)C[C@@H]1OC[C@H](C[C@@H]2O[C@H]2[C@@H](C)[C@H](C)O)[C@@H](O)[C@H]1O please.
> 128 µg/mL

----------
Tested on: Staphylococcus aureus (18 strains)
protocol_summary: MIC against clinical DFI isolates, Staphylococcus aureus
Assay type: cell-based
measurement_parameters: Staphylococcus aureus (18 strains)
measure_name: MIC range

These solved cases illustrate the format of a correct answer.
CN[C@H](CC(C)C)C(=O)N[C@H]1C(=O)N[C@@H](CC(N)=O)C(=O)N[C@H]2C(=O)N[C@H]3C(=O)N[C@H](C(=O)N[C@H](C(=O)O)c4cc(O)cc(O)c4-c4cc3ccc4O)[C@H](O)c3ccc(c(Cl)c3)Oc3cc2cc(c3O[C@@H]2O[C@H](CO)[C@@H](O)[C@H](O)[C@H]2O[C@H]2C[C@](C)(N)[C@H](O)[C@H](C)O2)Oc2ccc(cc2Cl)[C@H]1O	1~2 μg/mL
CC(=O)NC[C@H]1CN(c2ccc(N3CCOCC3)c(F)c2)C(=O)O1	2~4 μg/mL
CCC[C@@H]1C[C@@H](C(=O)N[C@@H]([C@H]2O[C@H](SC)[C@H](O)[C@@H](O)[C@H]2O)[C@H](C)Cl)N(C)C1	≤0.06~0.5 μg/mL

Sample CO[C@H]1/C=C/O[C@@]2(C)Oc3c(C)c(O)c4c(O)c(c(/C=N/N5CCC(N(C)C6([C@@H]7CCN(c8c(F)cn9c(=O)c(C(=O)O)cc(C%10CC%10)c9c8C)C7)CC6)CC5)c(O)c4c3C2=O)NC(=O)/C(C)=C\C=C\[C@H](C)[C@H](O)[C@@H](C)[C@@H](O)[C@@H](C)[C@H](OC(C)=O)[C@@H]1C — what was its MIC range?
≤0.015~0.03 μg/mL

Sample CO[C@H]1/C=C/O[C@@]2(C)Oc3c(C)c(O)c4c(O)c(c(/C=N/N5CCN(C)CC5)c(O)c4c3C2=O)NC(=O)/C(C)=C\C=C\[C@H](C)[C@H](O)[C@@H](C)[C@@H](O)[C@@H](C)[C@H](OC(C)=O)[C@@H]1C — what was its MIC range?
≤0.015 µg/mL

----------
Test system: Gram-negative bacteria (14 strains)
protocol_summary: MIC by standard broth dilution against clinical DFI isolates, Gram-negative bacteria
Type: cell-based
measure_name: MIC90

Worked examples follow.
Cc1onc(-c2ccccc2)c1C(=O)N[C@@H]1C(=O)N2[C@@H]1SC(C)(C)[C@@H]2C(=O)O [Oxacillin]	> 128 µg/mL
CC(=O)NC[C@H]1CN(c2ccc(N3CCOCC3)c(F)c2)C(=O)O1 [Linezolid]	> 128 µg/mL
CN[C@H](CC(C)C)C(=O)N[C@H]1C(=O)N[C@@H](CC(N)=O)C(=O)N[C@H]2C(=O)N[C@H]3C(=O)N[C@H](C(=O)N[C@H](C(=O)O)c4cc(O)cc(O)c4-c4cc3ccc4O)[C@H](O)c3ccc(c(Cl)c3)Oc3cc2cc(c3O[C@@H]2O[C@H](CO)[C@@H](O)[C@H](O)[C@H]2O[C@H]2C[C@](C)(N)[C@H](O)[C@H](C)O2)Oc2ccc(cc2Cl)[C@H]1O [Vancomycin]	> 128 µg/mL
C/C(=C\C(=O)OCCCCCCCCC(=O)O)C[C@@H]1OC[C@H](C[C@@H]2O[C@H]2[C@@H](C)[C@H](C)O)[C@@H](O)[C@H]1O [Mupirocin]	> 128 µg/mL
CCC[C@@H]1C[C@@H](C(=O)N[C@@H]([C@H]2O[C@H](SC)[C@H](O)[C@@H](O)[C@H]2O)[C@H](C)Cl)N(C)C1 [Clindamycin]	> 128 µg/mL
CO[C@H]1/C=C/O[C@@]2(C)Oc3c(C)c(O)c4c(O)c(c(/C=N/N5CCN(C)CC5)c(O)c4c3C2=O)NC(=O)/C(C)=C\C=C\[C@H](C)[C@H](O)[C@@H](C)[C@@H](O)[C@@H](C)[C@H](OC(C)=O)[C@@H]1C [Rifampicin]	> 32 µg/mL

Read the next record carefully.
Requested read-out: MIC90. Entry: CO[C@H]1/C=C/O[C@@]2(C)Oc3c(C)c(O)c4c(O)c(c(/C=N/N5CCC(N(C)C6([C@@H]7CCN(c8c(F)cn9c(=O)c(C(=O)O)cc(C%10CC%10)c9c8C)C7)CC6)CC5)c(O)c4c3C2=O)NC(=O)/C(C)=C\C=C\[C@H](C)[C@H](O)[C@@H](C)[C@@H](O)[C@@H](C)[C@H](OC(C)=O)[C@@H]1C [Compound of formula (I)]
> 32 µg/mL

Reference source for all entries: patent US20260256765A1
